# system.under.test: GlyR α1^L98A (Homo sapiens, UniProt P23415, L126A)
# assay.details: Whole-cell recording of substituted GlyR in HEK cells
# experimental.conditions: read-out: Zn^2+ Inhibition IC50; α1^L98A; modulation of EC50 glycine currents
measured.attribute: IC50

Item under review: [Zn+2] [Zn^2+] . Reported IC50?
> 1000 µM

----------
# system.under.test: GlyR α1^L98A (Homo sapiens, UniProt P23415, L126A)
# assay.details: Whole-cell recording of substituted GlyR in HEK cells
# Type: cell-based
# experimental.conditions: read-out: Zn^2+ Activation EC50; α1^L98A; direct activation without glycine
measured.attribute: EC50
Quick note: number first, unit second.

Could you tell me which EC50 is on file for [Zn+2] [Zn^2+] ?
260 nM

----------
# system.under.test: GlyR α1^F99A (Homo sapiens, UniProt P23415, F127A)
# assay.details: Whole-cell recording of substituted GlyR in HEK cells
# experimental.conditions: read-out: Zn^2+ Activation EC50; α1^F99A; direct activation without glycine
measured.attribute: pEC50
Just the number, please; pEC50 means minus log10 of the concentration in mol/L.

Name the reported pEC50 value associated with the compound [Zn+2] [Zn^2+]
6.89

----------
# system.under.test: GlyR α1 WT (Homo sapiens)
# assay.details: Whole-cell recording of wild-type GlyR α1 expressed in HEK cells
# experimental.conditions: read-out: Zn^2+ Inhibition IC50, modulation of EC50 glycine currents
measured.attribute: IC50 (µM)
Hi! Could you send only the number? It should be in µM, unit omitted.

Can you share its IC50? I mean this compound: `[Zn+2]`
15

----------
# system.under.test: GlyR α1^I132A (Homo sapiens, UniProt P23415, I160A)
# assay.details: Whole-cell recording of substituted GlyR in HEK cells
# experimental.conditions: read-out: Zn^2+ Activation EC50, direct activation without glycine
measured.attribute: EC50 (µM)
Just the number please, in µM, no unit attached.

Query (compound): [Zn+2] [Zn^2+] ; field requested: EC50
140

----------
# system.under.test: GlyR α1^L64A (Homo sapiens, UniProt P23415, L92A)
# Sequence (P23415 29-457 L92A): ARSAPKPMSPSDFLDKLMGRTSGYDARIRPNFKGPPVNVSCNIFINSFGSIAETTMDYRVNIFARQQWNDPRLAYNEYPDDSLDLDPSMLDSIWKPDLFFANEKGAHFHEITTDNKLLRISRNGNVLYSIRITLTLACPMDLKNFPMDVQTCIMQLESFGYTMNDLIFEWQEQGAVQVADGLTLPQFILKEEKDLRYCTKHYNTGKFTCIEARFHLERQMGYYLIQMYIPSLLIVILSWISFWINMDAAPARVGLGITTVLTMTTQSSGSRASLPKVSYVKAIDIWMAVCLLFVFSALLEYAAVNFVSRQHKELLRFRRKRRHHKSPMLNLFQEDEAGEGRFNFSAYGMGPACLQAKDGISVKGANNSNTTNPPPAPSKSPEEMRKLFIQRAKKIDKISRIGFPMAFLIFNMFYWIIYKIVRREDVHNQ
# assay.details: Whole-cell recording of substituted GlyR in HEK cells
# experimental.conditions: read-out: Zn^2+ Activation EC50, direct activation without glycine
measured.attribute: pEC50
Expect pEC50 as a plain number equal to -log10 of the molar concentration.

// pEC50 lookup, key: `[Zn+2]`
5.82

----------
# system.under.test: GlyR α1^F99A (Homo sapiens, UniProt P23415, F127A)
# Sequence (P23415 29-457 F127A): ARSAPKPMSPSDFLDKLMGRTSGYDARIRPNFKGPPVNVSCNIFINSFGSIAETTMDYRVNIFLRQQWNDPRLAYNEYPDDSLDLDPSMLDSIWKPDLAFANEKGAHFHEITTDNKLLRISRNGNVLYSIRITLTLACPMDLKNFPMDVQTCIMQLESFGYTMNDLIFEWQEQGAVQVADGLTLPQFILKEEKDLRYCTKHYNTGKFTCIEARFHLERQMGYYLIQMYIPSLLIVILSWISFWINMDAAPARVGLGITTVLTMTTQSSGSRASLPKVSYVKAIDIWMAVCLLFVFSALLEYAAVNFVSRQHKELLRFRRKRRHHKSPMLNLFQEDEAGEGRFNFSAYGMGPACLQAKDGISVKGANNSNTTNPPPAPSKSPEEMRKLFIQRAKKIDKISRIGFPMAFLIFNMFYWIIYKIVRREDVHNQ
# assay.details: Whole-cell recording of substituted GlyR in HEK cells
# Format: cell-based
# experimental.conditions: read-out: Zn^2+ Inhibition IC50; α1^F99A; modulation of EC50 glycine currents
measured.attribute: IC50

Would you mind telling me what IC50 value was observed for `[Zn+2]` ?
> 1000 µM

----------
# system.under.test: GlyR α1^F108A (Homo sapiens, UniProt P23415, F136A)
# experimental.conditions: read-out: Zn^2+ Inhibition IC50; α1^F108A; modulation of EC50 glycine currents
measured.attribute: IC50

Name the recorded IC50 for [Zn+2] [Zn^2+] .
> 1000 µM

----------
# system.under.test: GlyR α1^L117A (Homo sapiens, UniProt P23415, L145A)
# Sequence (P23415 29-457 L145A): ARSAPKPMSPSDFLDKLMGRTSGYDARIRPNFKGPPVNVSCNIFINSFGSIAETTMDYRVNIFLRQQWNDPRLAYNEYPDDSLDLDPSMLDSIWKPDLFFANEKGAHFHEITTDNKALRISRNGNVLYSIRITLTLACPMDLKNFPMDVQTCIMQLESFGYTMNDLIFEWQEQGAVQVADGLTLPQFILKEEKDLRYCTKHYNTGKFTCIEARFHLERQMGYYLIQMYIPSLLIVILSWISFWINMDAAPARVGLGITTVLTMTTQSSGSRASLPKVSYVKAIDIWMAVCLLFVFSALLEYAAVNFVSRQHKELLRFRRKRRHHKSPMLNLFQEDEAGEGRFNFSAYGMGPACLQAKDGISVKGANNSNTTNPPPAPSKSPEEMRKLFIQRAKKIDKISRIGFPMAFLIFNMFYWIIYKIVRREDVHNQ
# assay.details: Whole-cell recording of substituted GlyR in HEK cells
# experimental.conditions: read-out: Zn^2+ Inhibition IC50, modulation of EC50 glycine currents
measured.attribute: IC50 (µM)
Report the value in µM with no unit label.

State the recorded IC50 for this entry: `[Zn+2]`
13.3

----------
# system.under.test: GlyR α1^L134A (Homo sapiens, UniProt P23415, L162A)
# assay.details: Whole-cell recording of substituted GlyR in HEK cells
# experimental.conditions: read-out: Zn^2+ Activation EC50; α1^L134A; direct activation without glycine
measured.attribute: EC50 (nM)
Respond numerically; units are nM and should not be typed.

For the compound shown here, `[Zn+2]` , give the reported EC50.
60

----------
# system.under.test: GlyR α1^I62A (Homo sapiens, UniProt P23415, I90A)
# assay.details: Whole-cell recording of substituted GlyR in HEK cells
# experimental.conditions: read-out: Zn^2+ Activation EC50, direct activation without glycine
pEC50: −log10 of the molar value.
measured.attribute: pEC50

Sample `[Zn+2]` — what was its pEC50?
< 3.00

----------
# system.under.test: GlyR α1^I111A (Homo sapiens, UniProt P23415, I139A)
# assay.details: Whole-cell recording of substituted GlyR in HEK cells
# experimental.conditions: read-out: Zn^2+ Inhibition IC50, modulation of EC50 glycine currents
measured.attribute: IC50

Which value of IC50 has been reported for `[Zn+2]` in the records?
> 1000 µM

----------
# system.under.test: GlyR α1^L134A (Homo sapiens, UniProt P23415, L162A)
# Sequence (P23415 29-457 L162A): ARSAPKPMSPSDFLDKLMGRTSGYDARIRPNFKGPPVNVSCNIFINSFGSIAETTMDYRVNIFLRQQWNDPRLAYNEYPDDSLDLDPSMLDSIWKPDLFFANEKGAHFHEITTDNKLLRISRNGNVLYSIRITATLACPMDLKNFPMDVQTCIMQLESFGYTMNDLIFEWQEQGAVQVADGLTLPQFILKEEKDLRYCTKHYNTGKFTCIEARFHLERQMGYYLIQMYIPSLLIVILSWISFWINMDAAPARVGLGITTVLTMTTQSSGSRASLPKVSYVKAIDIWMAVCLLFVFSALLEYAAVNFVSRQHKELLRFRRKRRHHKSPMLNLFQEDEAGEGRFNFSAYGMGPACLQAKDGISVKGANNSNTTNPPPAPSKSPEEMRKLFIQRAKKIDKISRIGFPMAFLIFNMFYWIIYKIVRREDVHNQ
# assay.details: Whole-cell recording of substituted GlyR in HEK cells
# experimental.conditions: read-out: Zn^2+ Inhibition IC50; α1^L134A; modulation of EC50 glycine currents
measured.attribute: IC50

Enter reported IC50 observed with GlyR α1^L134A (Homo sapiens, UniProt P23415, L162A) for `[Zn+2]`
> 1 mM

Sourced from paper PMC6685790
